Experiment: Thermal stability test
Type: physicochemical
Settings: Condition (2): non-closed state, 40° C., humidity 75%
measured_quantity: stability (in words)

{"compound": "CC1=C(C(=O)OC(C)C)C(c2cccc([N+](=O)[O-])c2)C(C(=O)OC2CN(C(c3ccccc3)c3ccccc3)C2)=C(N)N1.CS(=O)(=O)O.CS(=O)(=O)O.CS(=O)(=O)O (stereo not shown)", "measured_quantity": "stability (in words)", "result": "excellent stability"}
{"compound": "Br.Br.CC1=C(C(=O)OC(C)C)C(c2cccc([N+](=O)[O-])c2)C(C(=O)OC2CN(C(c3ccccc3)c3ccccc3)C2)=C(N)N1 (single isomer, unassigned)", "measured_quantity": "stability (in words)", "result": "excellent stability"}
{"compound": "CC1=C(C(=O)OC(C)C)C(c2cccc([N+](=O)[O-])c2)C(C(=O)OC2CN(C(c3ccccc3)c3ccccc3)C2)=C(N)N1.Cc1ccc(S(=O)(=O)O)cc1.Cc1ccc(S(=O)(=O)O)cc1 (stereo not shown)", "measured_quantity": "stability (in words)", "result": "excellent stability"}

// provenance: patent US20090170827A1
